Data provenance: patent US20260092093A1

Target: T1, hIL-18BP-hFc (human, UniProt O95998 31-194, limits assumed)
T1 sequence (looked up): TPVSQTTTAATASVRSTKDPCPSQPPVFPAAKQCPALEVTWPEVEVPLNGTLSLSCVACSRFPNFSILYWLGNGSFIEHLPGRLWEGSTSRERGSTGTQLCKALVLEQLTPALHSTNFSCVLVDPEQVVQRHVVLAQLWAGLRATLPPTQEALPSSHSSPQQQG
Assay: cell-based or functional assay
Measured EC50 (nM) in the Presence of 1 µg/mL hIL-18BP-hFc, PBMC assay (hIFNγ release) by item
MEASURE: EC50 (nM) in the Presence of 1 µg/mL hIL-18BP-hFc, PBMC assay (hIFNγ release)

# BINDER, RESULT_UNITS, RESULT
measured = [
    ("IL-18 variant polypeptide MM5 (ligand) YFGKLGSKLSVIRNLNDQVLFIDQGNRPLFEDMTDSDCRDNAPRTIFIISMYKLSTERGMAVTISVKCEKISTLSCENKIISFKEMNPPDGIKDTKSDIIFFQSSVPGHDNKMQFESSSYEGYFLACEKERDLFKLILKKEDELGDRSIMFTVQNED", "nM", 0.045),
    ("IL-18 variant polypeptide M29 (ligand) YFPKLMSKLSVIRNLNDQVLFIDQGNRPLFEDMTDSDCRDNAPRTIFIISMYKFSDRRGMAVTISVKCEKISTLSCENKIISFKEMNPPDPIKDTKSDIIFFQRSVPGHDNKMQFESSSYEGYFLACEKERDLFKLILKKEDELGDRSIMFTVQNED", "nM", 0.096),
    ("IL-18 variant polypeptide WM8 (ligand) YFPKLRSKLSVIRNLNDQVLFIDQGNRPLFEDMTDSDCRDNAPRTIFIISMYKDSQPRGMAVTISVKCEKISTLSCENKIISFKEMNPPDSIKDTKSDIIFFQRSVPGHDNKMQFESSSYEGYFLACEKERDLFKLILKKEDELGDRSIMFTVQNED", "nM", 1.02),
]
